This collection of values is drawn from patent US20240368163A1.

# System: Target C
# ASSAY_REMARKS: Splicing RT-qPCR panel, Target C canonical junction (CJ) mRNA
# Format: cell-based, human
# ASSAY_CONDITIONS: Homo sapiens, RT-qPCR panel, canonical junction mRNA; compound concentration having 50% response in CJ decrease; read-out: Target C IC50 (decrease in CJ mRNA levels)
pIC50: −log10 of the molar value.
RESULT_TYPE: pIC50

Identify the reported pIC50 for the following entry. [2H]C([2H])([2H])N(c1ccc(-c2ccc(-c3cn[nH]c3)c3ncsc23)nn1)C1CCNCC1 [Compound 223]
5.00 to 6.00

Identify the reported pIC50 for the following entry. c1n[nH]cc1-c1ccc(-c2ccc(N3CC[C@@]45CCN[C@@H]4CC[C@@H]35)nn2)c2[nH]ncc12 [Compound 304]
< 5.00

Identify the reported pIC50 for the following entry. Cc1n[nH]c2c(-c3ccc(N(C)[C@@H]4C[C@H]5CC[C@@H](C4)N5)nn3)ccc(-c3cnn(C)n3)c12 [Compound 375]
< 5.00

Identify the reported pIC50 for the following entry. CC1(C)CN(c2ncc(-c3ccc(-c4cn[nH]c4)c4ncsc34)nn2)CC(C)(C)N1 [Compound 563]
< 5.00

Identify the reported pIC50 for the following entry. CCn1ncc(-c2ccc(-c3ccc(N(C)[C@@H]4C[C@H]5CC[C@@H](C4)N5)nn3)c3[nH]ncc23)n1 [Compound 317]
5.00 to 6.00

Identify the reported pIC50 for the following entry. Cc1cc(-c2ccc(-c3ccc(O[C@H]4C[C@@H]5CC(F)(F)[C@H](C4)N5)nn3)c3[nH]ncc23)ccn1 (single isomer, unassigned) [Compound 370]
5.00 to 6.00

Identify the reported pIC50 for the following entry. CN(c1ccc(-c2ccc(-c3cn[nH]c3)c3nn[nH]c23)nn1)[C@@H]1C[C@H]2CC[C@@H](C1)N2 [Compound 118]
5.00 to 6.00
